tested.target: Lethal factor (Bacillus anthracis) (UniProt P15917)
method.notes: Lethal factor protease inhibitors, Bacillus anthracis, multiplex microsphere cleavage assay, validation set (AID 588461)
assay.conditions: flow cytometry, at 10 µM, hits give high values
Entries and their inhibition
Write down the numeric answer in % and omit the unit.

Sample records with inhibition:
{"columns": ["molecule", "readout.number"],
 "data": [
  ["CC1(CC(=O)Nc2ccccc2)NC(=S)N(c2ccccc2)N1 (configuration not stated)", 5.1],
  ["O=C(c1ccc(Cl)cc1)C1CCCN(Cc2ccc(Oc3ncccn3)cc2)C1 (configuration not stated)", -3.2],
  ["O=C(O)c1cnccn1", -1.5]
]}

Summary for this molecule, `COCCn1c(/C=C/c2ccccc2)nc2ccccc21` : inhibition is -3.4

Summary for this molecule, CC(=O)OC(CC(=O)O)C[N+](C)(C)C (configuration not stated) : inhibition is -3.6

Summary for this molecule, CCC(C(=O)Nc1ccc2c(c1)OCCO2)c1ccccc1 (configuration not stated) : inhibition is -1.8

Summary for this molecule, `Cc1cc(Cl)ccc1OCC(=O)O` : inhibition is 2.4

----------
method.notes: promoters of myeloid differentiation in arrested cells, primary screen, cell-based, GFP/MAC1 double positive, flow cytometry, validation set (AID 588685);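 note: compound exposure lasts four days before antibody staining and flow analysis; 0% = DMSO wells and 100% = 5 µM fulvestrant positive control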
assay.conditions: ER-HoxA9 marrow cells, hits give high values
Entries and their differentiation response
Write down the numeric answer in % and omit the unit.

Sample records with differentiation response:
{"columns": ["compound", "differentiation response / %"],
 "data": [
  ["NCC1(c2ccc3c(c2)OCCO3)CCCC1", 1.41],
  ["C=C1[C@@H](C)[C@H]2[C@H](Cc3ccccc3)NC(=O)[C@]23OC(=O)/C=C/[C@H](O)CCC[C@@H](C)C/C=C/[C@H]3[C@@H]1O", -4],
  ["C[C@@H]1O[C@@H](O[C@H]2C[C@@H](O)[C@]3(CO)[C@H]4[C@H](O)C[C@]5(C)[C@@H](C6=CC(=O)OC6)CC[C@]5(O)[C@@H]4CC[C@]3(O)C2)[C@H](O)[C@H](O)[C@H]1O", 1.91]
]}

Summary for this compound, CC(C)CC12CN3CCN(CC(C3)C1O)C2 (stereo unspecified) : differentiation response is 10.6

Summary for this compound, `C[C@H]1OC[C@@H](C[N+](C)(C)C)O1` : differentiation response is -10.4

Summary for this compound, C[C@H]1CCC/C=C/C2C[C@H](O)CC2[C@H](O)/C=C/C(=O)O1 (stereo partly specified) : differentiation response is 32

----------
Test system: Botulinum neurotoxin type F light chain protease (Clostridium botulinum)
method.notes: Botulinum neurotoxin type F light chain protease inhibition, multiplex microsphere flow cytometry, validation set (AID 588459)
assay.conditions: multiplex microsphere protease substrate cleavage assay, at 10 µM, hits give high values
value.type: inhibition (%)
Write down the numeric answer in % and omit the unit.

Sample records with inhibition:
{"columns": ["compound", "tested.target", "inhibition / %"],
 "data": [
  ["Nc1ccn([C@@H]2O[C@H](CO)[C@@H](O)[C@@H]2O)c(=O)n1", "Botulinum neurotoxin type F light chain protease (Clostridium botulinum)", -1.4],
  ["CC(C)(C)NC[C@H](O)COc1nsnc1N1CCOCC1", "Botulinum neurotoxin type F light chain protease (Clostridium botulinum)", 0.1],
  ["C[C@]12CCC(=O)C=C1CC[C@@H]1[C@@H]2CC[C@@]2(C)[C@H]1CC[C@]2(O)C(=O)CO", "Botulinum neurotoxin type F light chain protease (Clostridium botulinum)", 1.3],
  ["CC12CN3CC(C)(CN(C1)C3c1cccs1)C2O (stereo not drawn)", "Botulinum neurotoxin type F light chain protease (Clostridium botulinum)", -2.4],
  ["CC(=O)N(CCC(Cc1ccccc1)c1ccco1)Cc1ccco1 (stereo not drawn)", "Botulinum neurotoxin type F light chain protease (Clostridium botulinum)", 1.4]
]}

Summary for this compound, `COc1ccc(-c2nc(C)c(C(C)=O)n2O)cc1OC` : inhibition is -3.6

Summary for this compound, `Cc1cc(Cl)cc2c1NC(=O)[C@]21[C@@H]2C(=O)N(Cc3ccccc3)C(=O)[C@@H]2[C@@H]2CCCN21` : inhibition is 2.1

Summary for this compound, `Cc1cc(C(C)(C)C)cc(C)c1CC1=NCCN1` : inhibition is 1.3

Summary for this compound, `COc1cc2c(cc1OC)/C(=C/c1ccc(Cl)cc1)C(=O)OC2` : inhibition is -0.2

Summary for this compound, `Nc1ccc(S(=O)(=O)NC(=O)c2ccccc2)cc1` : inhibition is 1.2

Summary for this compound, `CC(=O)Oc1c2occc2cc2ccc(=O)oc12` : inhibition is -2.4

----------
Entries and their inhibition
tested.target: Lethal factor (Bacillus anthracis) (UniProt P15917)
method.notes: Lethal factor protease inhibitors, Bacillus anthracis, multiplex microsphere cleavage assay, validation set (AID 588461)
assay.conditions: flow cytometry, at 10 µM, hits give high values
Write down the numeric answer in % and omit the unit.

Sample records with inhibition:
{"columns": ["compound", "inhibition / %"],
 "data": [
  ["CCOc1cc(C)cc2oc(=O)cc(-c3ccccc3)c12", -4.4],
  ["COc1ccc(C(=O)Nc2ccccc2C(=O)NC(Cc2c[nH]c3ccccc23)C(=O)O)cc1 (stereo not given)", 0],
  ["CN1C(C(=O)Nc2ccccn2)=C(O)c2sccc2S1(=O)=O", -1.1],
  ["O=C(CCN1CCC(c2ccccc2)C1)c1ccc2c(c1)OCCO2 (stereo not given)", -1.8],
  ["COc1ccc2c3c([nH]c2c1)C(C)=NCC3", -104]
]}

Summary for this compound, `CCn1cc(C(=O)O)c(=O)c2ccc(C)nc21` : inhibition is -3.9

Summary for this compound, `CC(=O)CCCCn1c(=O)c2c(ncn2C)n(C)c1=O` : inhibition is -6.2

Summary for this compound, CCN(CC)c1ccc(C2=NNC(=O)CC2C)cc1[N+](=O)[O-] (stereo not given) : inhibition is -6.2

Summary for this compound, `COc1ccc2cc[nH]c2c1` : inhibition is 2.8

Summary for this compound, COc1c(O)ccc2c1CN1CCc3cc4c(cc3C1C2)OCO4 (stereo not given) : inhibition is -16.1

----------
Tested on: Botulinum neurotoxin type F light chain protease (Clostridium botulinum)
method.notes: Botulinum neurotoxin type F light chain protease inhibition, multiplex microsphere flow cytometry, validation set (AID 588459)
assay.conditions: multiplex microsphere protease substrate cleavage assay, at 10 µM, hits give high values
value.type: inhibition (%)
Write down the numeric answer in % and omit the unit.

Sample records with inhibition:
{"columns": ["molecule", "value.type", "unit.info", "readout.number"],
 "data": [
  ["CC12CCCCN1CCCc1c2[nH]c2ccccc12 (configuration not stated)", "inhibition", "%", -1.1],
  ["CC1(C)c2ccccc2N2CC(=O)N(CC(N)=O)C21C (configuration not stated)", "inhibition", "%", 1.5],
  ["C[C@H]1CCCC(=O)CCCCCc2cc(O)cc(O)c2C(=O)O1", "inhibition", "%", -0.4],
  ["CCn1ccnc1CN1CCCC(C(=O)c2cc(F)ccc2OC)C1 (configuration not stated)", "inhibition", "%", 0.8],
  ["OCCN(CCO)c1nc(N2CCCCC2)c2nc(N(CCO)CCO)nc(N3CCCCC3)c2n1", "inhibition", "%", 4.8]
]}

Summary: CC12CCC3C(CC=C4CC5(CCC43C)OCCO5)C1CCC2=O (configuration not stated) , Botulinum neurotoxin type F light chain protease (Clostridium botulinum), inhibition = 4.6

Summary: CCOC(=O)C1NN=C(C(=O)c2ccccc2)C1c1ccc(Cl)cc1 (configuration not stated) , Botulinum neurotoxin type F light chain protease (Clostridium botulinum), inhibition = 3

Summary: `C[C@]12CC[C@@H]3c4ccc(O)cc4CC[C@H]3[C@@H]1CCC2=O` , Botulinum neurotoxin type F light chain protease (Clostridium botulinum), inhibition = 1.3

Summary: COc1ccc(C(=O)CC2OC(=O)c3c2ccc(OC)c3OC)cc1 (configuration not stated) , Botulinum neurotoxin type F light chain protease (Clostridium botulinum), inhibition = 0.2

Summary: `CC(C)CCNC(=O)[C@H](CC(C)C)NC(=O)[C@H]1O[C@@H]1C(=O)O` , Botulinum neurotoxin type F light chain protease (Clostridium botulinum), inhibition = -3.8

Summary: COc1cc(C2C(C(C)=O)=C(O)C(=O)N2c2ccc(C)cc2)ccc1O (configuration not stated) , Botulinum neurotoxin type F light chain protease (Clostridium botulinum), inhibition = -1.4

Summary: `C#C[C@]1(O)CC[C@H]2[C@@H]3CCc4cc(OC5CCCC5)ccc4[C@H]3CC[C@@]21C` , Botulinum neurotoxin type F light chain protease (Clostridium botulinum), inhibition = -0.9

----------
System: Botulinum neurotoxin type F light chain protease (Clostridium botulinum)
method.notes: Botulinum neurotoxin type F light chain protease inhibition, multiplex microsphere flow cytometry, validation set (AID 588459)
assay.conditions: multiplex microsphere protease substrate cleavage assay, at 10 µM, hits give high values
Entries and their inhibition
Write down the numeric answer in % and omit the unit.

Sample records with inhibition:
{"columns": ["compound", "tested.target", "value.type", "readout.number"],
 "data": [
  ["COc1ccc(CNC(=O)N[C@H](C(=O)O)C(C)C)cc1OC", "Botulinum neurotoxin type F light chain protease (Clostridium botulinum)", "inhibition", -0.7],
  ["Cn1cc(CN(CCO)Cc2cccs2)c(-c2cccc(Cl)c2)n1", "Botulinum neurotoxin type F light chain protease (Clostridium botulinum)", "inhibition", 1.3],
  ["Cc1ccsc1/C=N\\NC(=O)c1ccc2c(c1)OCO2", "Botulinum neurotoxin type F light chain protease (Clostridium botulinum)", "inhibition", 2.9],
  ["CC/C(=C(\\c1ccc(O)cc1)c1ccc(OCCN(C)C)cc1)c1ccccc1", "Botulinum neurotoxin type F light chain protease (Clostridium botulinum)", "inhibition", 2.7]
]}

Summary for this compound, `COc1ccc2[nH]c3c(c2c1)CCn1c-3nc2ccccc2c1=O` : inhibition is 7

Summary for this compound, `O=c1c2ccccc2nnn1Cc1cccc2ccccc12` : inhibition is 0.5

Summary for this compound, `Cn1nnnc1SCC1=C(C(=O)O)N2C(=O)[C@@H](NC(=O)[C@H](O)c3ccccc3)[C@H]2SC1` : inhibition is 1
